# TESTED_ON: Mitogen-activated protein kinase kinase kinase kinase 2 (Homo sapiens, UniProt Q12851)
# Sequence (Q12851 whole entry): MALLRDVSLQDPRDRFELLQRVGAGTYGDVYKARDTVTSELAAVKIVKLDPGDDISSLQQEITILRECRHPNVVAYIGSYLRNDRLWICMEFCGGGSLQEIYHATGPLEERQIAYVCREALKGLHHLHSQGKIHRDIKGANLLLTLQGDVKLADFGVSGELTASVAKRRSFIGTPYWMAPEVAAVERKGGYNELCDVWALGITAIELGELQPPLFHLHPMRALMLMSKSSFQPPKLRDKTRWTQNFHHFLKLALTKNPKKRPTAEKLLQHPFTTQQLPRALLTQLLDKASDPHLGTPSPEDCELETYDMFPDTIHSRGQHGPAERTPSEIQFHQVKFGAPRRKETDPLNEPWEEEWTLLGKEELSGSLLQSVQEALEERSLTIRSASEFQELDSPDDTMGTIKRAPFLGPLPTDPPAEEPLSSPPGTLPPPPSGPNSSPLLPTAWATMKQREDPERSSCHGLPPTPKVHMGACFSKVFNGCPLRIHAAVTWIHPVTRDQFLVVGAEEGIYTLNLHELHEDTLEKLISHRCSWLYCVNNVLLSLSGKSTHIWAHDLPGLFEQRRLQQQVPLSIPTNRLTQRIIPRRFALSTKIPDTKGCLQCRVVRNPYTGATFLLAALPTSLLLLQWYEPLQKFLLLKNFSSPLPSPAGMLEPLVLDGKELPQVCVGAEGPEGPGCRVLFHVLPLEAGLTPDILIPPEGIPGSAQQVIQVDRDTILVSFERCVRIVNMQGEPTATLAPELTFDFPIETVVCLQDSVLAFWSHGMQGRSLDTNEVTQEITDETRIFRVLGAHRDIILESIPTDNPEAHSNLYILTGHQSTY
# ASSAY_TEXT: Inhibition of GCK
REPORTED_ENDPOINT: pIC50
One number for each entry, as −log10 of the molar value.

For this molecule ( "CC1(C)CC(NC(=O)c2cccc(-c3cc4nccc(Nc5cccc(O)c5)n4n3)c2)CC(C)(C)N1[O]" ), measured pIC50 is 7.62

====

# TESTED_ON: Casein kinase I isoform gamma-1 (Homo sapiens)
# Sequence (Q9HCP0 whole entry, canonical isoform): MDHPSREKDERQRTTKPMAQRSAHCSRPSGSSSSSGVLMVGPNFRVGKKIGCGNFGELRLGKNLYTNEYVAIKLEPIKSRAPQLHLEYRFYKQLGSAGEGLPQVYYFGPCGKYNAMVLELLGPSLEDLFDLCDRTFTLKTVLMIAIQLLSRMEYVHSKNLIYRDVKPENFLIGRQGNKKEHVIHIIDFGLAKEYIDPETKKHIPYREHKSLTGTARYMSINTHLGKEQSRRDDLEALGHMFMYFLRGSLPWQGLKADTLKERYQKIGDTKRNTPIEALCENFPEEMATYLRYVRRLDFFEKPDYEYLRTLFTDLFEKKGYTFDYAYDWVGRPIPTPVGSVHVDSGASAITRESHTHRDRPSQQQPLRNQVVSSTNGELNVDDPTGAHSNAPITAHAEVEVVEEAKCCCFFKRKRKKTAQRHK
# ASSAY_TEXT: Inhibition of CK1gamma1
REPORTED_ENDPOINT: IC50

Lab note: compound "CC1(C)CC(NC(=O)c2cccc(-c3cc4nccc(Nc5cccc(O)c5)n4n3)c2)CC(C)(C)N1[O]" tested on Casein kinase I isoform gamma-1 (Homo sapiens); recorded IC50 was > 50 µM

====

# TESTED_ON: Vascular endothelial growth factor receptor 2 (Homo sapiens, UniProt P35968)
# Sequence (P35968 whole entry): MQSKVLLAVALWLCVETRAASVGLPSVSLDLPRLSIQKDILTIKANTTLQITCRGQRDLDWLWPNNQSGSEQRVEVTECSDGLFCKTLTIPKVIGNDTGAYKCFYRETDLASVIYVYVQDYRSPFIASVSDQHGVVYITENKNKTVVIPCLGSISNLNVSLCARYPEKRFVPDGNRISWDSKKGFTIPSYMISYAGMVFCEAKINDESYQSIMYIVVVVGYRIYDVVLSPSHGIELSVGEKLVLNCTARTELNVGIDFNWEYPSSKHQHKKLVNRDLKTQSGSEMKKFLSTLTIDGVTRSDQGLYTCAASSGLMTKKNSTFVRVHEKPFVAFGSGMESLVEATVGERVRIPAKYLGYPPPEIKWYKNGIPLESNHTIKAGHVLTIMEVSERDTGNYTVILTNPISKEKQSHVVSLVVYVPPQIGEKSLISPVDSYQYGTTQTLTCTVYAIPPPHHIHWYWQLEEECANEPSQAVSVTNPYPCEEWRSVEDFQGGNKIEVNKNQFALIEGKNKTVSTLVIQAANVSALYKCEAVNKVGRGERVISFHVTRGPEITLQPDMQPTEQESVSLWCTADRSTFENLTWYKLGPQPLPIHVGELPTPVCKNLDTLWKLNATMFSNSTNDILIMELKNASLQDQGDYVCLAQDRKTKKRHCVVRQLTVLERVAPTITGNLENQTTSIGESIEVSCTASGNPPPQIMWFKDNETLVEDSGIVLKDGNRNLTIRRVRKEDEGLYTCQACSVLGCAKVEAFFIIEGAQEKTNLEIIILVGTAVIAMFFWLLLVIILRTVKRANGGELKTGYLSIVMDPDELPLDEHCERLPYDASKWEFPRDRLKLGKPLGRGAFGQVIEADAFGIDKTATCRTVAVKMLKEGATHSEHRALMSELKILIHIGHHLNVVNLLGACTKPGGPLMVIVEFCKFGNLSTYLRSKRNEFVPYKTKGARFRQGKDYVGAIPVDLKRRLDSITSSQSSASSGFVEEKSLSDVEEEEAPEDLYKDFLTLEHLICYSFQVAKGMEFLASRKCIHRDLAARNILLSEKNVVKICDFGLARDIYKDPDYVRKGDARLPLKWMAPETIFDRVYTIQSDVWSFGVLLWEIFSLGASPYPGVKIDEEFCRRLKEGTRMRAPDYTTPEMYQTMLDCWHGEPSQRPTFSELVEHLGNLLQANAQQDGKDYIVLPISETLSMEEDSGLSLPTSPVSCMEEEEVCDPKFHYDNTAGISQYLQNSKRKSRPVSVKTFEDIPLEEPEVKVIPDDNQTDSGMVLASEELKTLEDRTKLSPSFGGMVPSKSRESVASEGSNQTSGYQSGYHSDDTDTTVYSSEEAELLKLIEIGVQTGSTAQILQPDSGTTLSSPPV
# ASSAY_TEXT: Inhibition of KDR
REPORTED_ENDPOINT: pIC50
Numbers only, as −log10 of the molar value.

For this compound ( "CC1(C)CC(NC(=O)c2cccc(-c3cc4nccc(Nc5cccc(O)c5)n4n3)c2)CC(C)(C)N1[O]" ), measured pIC50 is 8.48

====

# TESTED_ON: Ribosomal protein S6 kinase alpha-1 (Homo sapiens)
# Sequence (Q15418 whole entry): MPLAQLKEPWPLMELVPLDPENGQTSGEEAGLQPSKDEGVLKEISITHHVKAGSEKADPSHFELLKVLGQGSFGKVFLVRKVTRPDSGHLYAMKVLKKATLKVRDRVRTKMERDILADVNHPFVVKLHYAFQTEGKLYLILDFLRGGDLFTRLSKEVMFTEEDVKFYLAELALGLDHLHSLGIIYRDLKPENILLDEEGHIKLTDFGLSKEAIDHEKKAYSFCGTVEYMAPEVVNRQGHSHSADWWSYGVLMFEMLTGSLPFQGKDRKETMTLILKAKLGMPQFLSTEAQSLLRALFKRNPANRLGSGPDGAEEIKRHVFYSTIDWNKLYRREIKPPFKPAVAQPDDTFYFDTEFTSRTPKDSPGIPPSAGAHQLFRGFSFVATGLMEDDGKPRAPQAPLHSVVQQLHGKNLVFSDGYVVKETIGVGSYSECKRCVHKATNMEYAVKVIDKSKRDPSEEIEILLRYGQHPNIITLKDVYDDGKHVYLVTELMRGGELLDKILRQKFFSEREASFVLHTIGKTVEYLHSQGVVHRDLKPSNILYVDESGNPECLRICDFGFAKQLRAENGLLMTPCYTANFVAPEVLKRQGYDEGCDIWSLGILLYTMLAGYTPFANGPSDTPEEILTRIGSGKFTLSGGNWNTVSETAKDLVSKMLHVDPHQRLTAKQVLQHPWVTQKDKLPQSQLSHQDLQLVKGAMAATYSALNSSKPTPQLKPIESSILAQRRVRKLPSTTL
# ASSAY_TEXT: Inhibition of RSK1
pIC50: −log10 of the molar value.
REPORTED_ENDPOINT: pIC50

Lab note: compound "CC1(C)CC(NC(=O)c2cccc(-c3cc4nccc(Nc5cccc(O)c5)n4n3)c2)CC(C)(C)N1[O]" tested on Ribosomal protein S6 kinase alpha-1 (Homo sapiens); recorded pIC50 was < 4.30

====

# TESTED_ON: Tyrosine-protein kinase Lyn (Homo sapiens, UniProt P07948)
# Sequence (P07948 whole entry): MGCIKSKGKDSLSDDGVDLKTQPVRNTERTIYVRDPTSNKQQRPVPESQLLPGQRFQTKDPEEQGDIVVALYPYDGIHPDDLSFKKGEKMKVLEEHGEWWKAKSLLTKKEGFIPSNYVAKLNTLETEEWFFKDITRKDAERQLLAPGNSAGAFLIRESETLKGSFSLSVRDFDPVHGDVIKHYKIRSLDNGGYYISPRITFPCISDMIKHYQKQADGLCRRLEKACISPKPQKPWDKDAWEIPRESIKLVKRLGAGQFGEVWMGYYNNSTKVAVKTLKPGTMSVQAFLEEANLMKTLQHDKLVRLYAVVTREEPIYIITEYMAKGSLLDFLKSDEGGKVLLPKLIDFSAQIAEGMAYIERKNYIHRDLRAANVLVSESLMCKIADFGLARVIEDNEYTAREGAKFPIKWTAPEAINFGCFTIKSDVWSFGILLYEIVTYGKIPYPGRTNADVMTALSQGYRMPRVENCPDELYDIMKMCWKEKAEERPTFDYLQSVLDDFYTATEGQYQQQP
REPORTED_ENDPOINT: IC50 (nM)
Give bare numbers, in nM.

For this molecule ( "CC1(C)CC(NC(=O)c2cccc(-c3cc4nccc(Nc5cccc(O)c5)n4n3)c2)CC(C)(C)N1[O]" ), measured IC50 is 7

====

# TESTED_ON: Protein kinase C alpha type (Homo sapiens)
REPORTED_ENDPOINT: IC50

For this molecule ( "CC1(C)CC(NC(=O)c2cccc(-c3cc4nccc(Nc5cccc(O)c5)n4n3)c2)CC(C)(C)N1[O]" ), measured IC50 is 1.3 µM

====

# TESTED_ON: MAP kinase-activated protein kinase 2 (Homo sapiens, UniProt P49137)
# Sequence (P49137 whole entry): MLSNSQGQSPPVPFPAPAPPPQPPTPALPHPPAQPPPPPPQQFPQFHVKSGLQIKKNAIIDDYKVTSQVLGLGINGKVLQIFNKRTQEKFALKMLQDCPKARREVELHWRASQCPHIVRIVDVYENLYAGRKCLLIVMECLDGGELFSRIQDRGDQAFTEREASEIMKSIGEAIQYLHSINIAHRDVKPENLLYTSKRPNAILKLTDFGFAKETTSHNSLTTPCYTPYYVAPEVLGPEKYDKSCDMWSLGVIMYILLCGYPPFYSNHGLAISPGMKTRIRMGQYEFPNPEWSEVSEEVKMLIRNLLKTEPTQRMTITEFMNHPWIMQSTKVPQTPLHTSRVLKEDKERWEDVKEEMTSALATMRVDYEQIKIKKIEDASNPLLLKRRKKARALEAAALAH
# ASSAY_TEXT: Inhibition of MK2
pIC50: −log10 of the molar value.
REPORTED_ENDPOINT: pIC50

For this compound ( "CC1(C)CC(NC(=O)c2cccc(-c3cc4nccc(Nc5cccc(O)c5)n4n3)c2)CC(C)(C)N1[O]" ), measured pIC50 is < 4.30

====

# TESTED_ON: Cyclin-dependent kinase 1/cyclin B (Homo sapiens)
# ASSAY_TEXT: Inhibition of CDK1/Cyclin B
pIC50: −log10 of the molar value.
REPORTED_ENDPOINT: pIC50

For this molecule ( "CC1(C)CC(NC(=O)c2cccc(-c3cc4nccc(Nc5cccc(O)c5)n4n3)c2)CC(C)(C)N1[O]" ), measured pIC50 is < 4.30

====

# TESTED_ON: Proto-oncogene tyrosine-protein kinase Src (Homo sapiens, UniProt P12931)
# Sequence (P12931 2-536 limits assumed): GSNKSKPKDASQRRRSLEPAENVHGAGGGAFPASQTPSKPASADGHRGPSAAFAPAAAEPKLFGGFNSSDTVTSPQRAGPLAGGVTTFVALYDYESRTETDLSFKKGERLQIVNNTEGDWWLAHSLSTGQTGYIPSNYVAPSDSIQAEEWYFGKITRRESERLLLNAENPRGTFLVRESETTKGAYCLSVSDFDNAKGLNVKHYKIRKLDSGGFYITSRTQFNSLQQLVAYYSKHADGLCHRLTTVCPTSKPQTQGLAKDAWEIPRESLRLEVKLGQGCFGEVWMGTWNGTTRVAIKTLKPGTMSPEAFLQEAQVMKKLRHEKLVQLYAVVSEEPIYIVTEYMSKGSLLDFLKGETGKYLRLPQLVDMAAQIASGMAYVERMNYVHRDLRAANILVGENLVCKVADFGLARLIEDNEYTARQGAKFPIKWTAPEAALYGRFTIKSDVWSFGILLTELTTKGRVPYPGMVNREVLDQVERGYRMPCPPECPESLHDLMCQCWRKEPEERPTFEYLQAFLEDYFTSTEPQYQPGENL
# ASSAY_TEXT: Inhibition of src kinase
REPORTED_ENDPOINT: IC50 (nM)
One number for each entry, in nM.

For this molecule ( "CC1(C)CC(NC(=O)c2cccc(-c3cc4nccc(Nc5cccc(O)c5)n4n3)c2)CC(C)(C)N1[O]" ), measured IC50 is 5
